The compounds listed here are annotated with their pIC50.
# MEASUREMENT_TARGET: JAK2 (Homo sapiens (Human), UniProt O60674)
# Sequence (O60674 849-1124): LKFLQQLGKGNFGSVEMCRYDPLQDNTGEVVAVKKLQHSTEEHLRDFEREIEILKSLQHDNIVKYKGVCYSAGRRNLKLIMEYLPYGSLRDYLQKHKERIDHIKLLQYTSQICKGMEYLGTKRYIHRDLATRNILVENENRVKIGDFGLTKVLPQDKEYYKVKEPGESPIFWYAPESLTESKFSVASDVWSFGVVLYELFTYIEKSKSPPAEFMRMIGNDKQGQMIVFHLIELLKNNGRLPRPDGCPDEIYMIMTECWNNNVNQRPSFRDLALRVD
# MEASUREMENT_NOTES: JAK Caliper Enzyme Assay at 1 mM ATP, JAK2
# Type: biochemical
pIC50: −log10 of the molar value.

| COMPOUND | BOUND_SIGN | pIC50 |
| --- | --- | --- |
| CCN1CC(CC#N)(n2ccc(-c3nc(N4CCOCC4)cc4ncccc34)n2)C1 [Example 264] | < | 5.00 |
| N#CCC1(n2ccc(-c3nc(-c4cn[nH]c4)cc4ncccc34)n2)CN(CC(F)(F)F)C1 [Example 74] | = | 6.57 |
| CS(=O)(=O)N1CC(CC#N)(n2ncc(-c3cc(-c4ccc(N)nc4)cc4ncccc34)n2)C1 [Example 364] | = | 6.08 |
| N#CC[C@]1(n2ccc(-c3nc(-c4cn[nH]c4)cc4ncccc34)n2)C[C@H](C#N)C1 [Example 77] | = | 6.62 |
| N#CC[C@]1(n2ncc(-c3cc(-c4ccc(N)nc4)cc4ncccc34)n2)C[C@@H](C#N)C1 [Example 366] | = | 6.78 |
| N#CCC1(n2ccc(-c3nc(-c4cn[nH]c4)cc4ncccc34)n2)CC(C#N)C1 (centres unmarked) [Example 76] | = | 7.48 |
| Cn1nncc1-c1cc(-c2cnn([C@]3(CC#N)C[C@H](C#N)C3)n2)c2cccnc2c1 [Example 338] | < | 5.00 |
| N#CC[C@]1(n2ncc(-c3cc(-c4cc(C(N)=O)ccn4)cc4ncccc34)n2)C[C@@H](C#N)C1 [Example 354] | < | 5.00 |
